Target: biotinylated human uPAR (human, UniProt Q03405 23-303, limits assumed, biotinylated (site not stated))
Assay: BLI (Octet) on biotinylated human uPAR; row 'None': no first antibody
measure: response in competition assay
Answers are plain numbers.

response in competition assay measured on M5 (antibody, V domains shown, Mouse hybridoma antibody; also called anti-uPAR antibody M5; parental M5) VH: QVQLKESGPGLVAPSQSLSITCTVSGFSLTNYGVHWVRQPPGKDLEWLVVIWSDGGTTYNSALKSRLSISKDNSKSQVFLKMNSLQTDDTAMYYCARGGRSDLFAYWGQGTLVTVSA VL: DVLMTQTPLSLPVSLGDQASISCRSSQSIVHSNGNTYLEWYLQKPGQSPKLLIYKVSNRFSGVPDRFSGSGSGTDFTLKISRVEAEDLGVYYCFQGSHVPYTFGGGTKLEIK = 0.181

// recorded response in competition assay for M8 (antibody, V domains shown, Mouse hybridoma antibody; also called anti-uPAR antibody M8; parental M8) VH: QIQLVQSGPELKKPGETVKISCKASGNTFTDYGMNWVKQSPGKGLKWMGWINTNTGEPTYADDFKGRFAFSLETSASTAYLQINNLKNEDMATYFCAHYSFDYWGQGTTLTVSS VL: DIQMTQSPASLSVSVGQTVTITCRTSENIYSNLAWYQQKPGKSPQLLVYAATNLADGVPSRFSGSGSGTQYSLKINSLQSEDFGSYYCQHFWGTPWTFGGGTKLEIK : 0.284

Here is the next item to consider.
# binder M43 (antibody, V domains shown, Mouse hybridoma antibody; also called anti-uPAR antibody M43; parental M43) VH: QVQLQQSGAELARPGASVNLSCKASGYTFTSYGISWVKQRTGQGLEWIGEIYPRSGNTYYNEKFKGKATLTADKSSRTAYMELRSLTSEDSAVYFCAGKDYGSTYADYWGQGTTLTVSS VL: QIVLTQSPAIMSASPGEKVTMTCSASSSVSSRYLHWYQQKSGASPKLWIYGTSNLASGVPARFSGSGSGTSYSLTINSVEAEDAATYYCQQYHSDPLTFGAGTKLELK ; its response in competition assay = 0.295
